# Tested on: HL-60(TB) leukemia
# method: NCI tumour cell line growth inhibition, 48 h
Please go through the items and note down their TGI.
// note: answer is a bare numeric in µM

Exercise: # return recorded TGI for entry COc1ccc(C(CC(=O)c2ccc(O)cc2)C(C(=O)c2ccc(O)cc2)C(c2ccc(OC)cc2)C2C(=O)NC(=S)NC2=O)cc1 (stereo not given)
Key: 85.6

Exercise: # return recorded TGI for entry "O=C(CCCN1CCC(Nc2ccc(F)cc2)(c2nnnn2C2CCCCC2)CC1)c1ccc(F)cc1"
Key: 40.4

Exercise: # return recorded TGI for entry COC(=O)CC(c1ccccc1)C(C#N)(OP1(=O)OC(c2ccccc2)C(C)N1C)c1ccccc1 (stereo not given)
Key: 72.6

Exercise: # return recorded TGI for entry O=c1n(CC2CO2)c2ccccc2n1CC1CS1 (stereo not given)
Key: 87.7

Exercise: # return recorded TGI for entry "CCCCCCOc1ccc(/C=N/Nc2cc(C)nc3ccc(Br)cc23)cc1"
Key: 3.26

Exercise: # return recorded TGI for entry O=C1CSC2(CC(/C=C/c3ccccc3[N+](=O)[O-])=NN2c2cccc(S(=O)(=O)O)c2)N1c1nc2ccccc2s1 (stereo not given)
Key: 63.7

Exercise: # return recorded TGI for entry "CN(Cc1cccc(Cl)c1)c1ccc(CO)c(Cl)c1"
Key: 45

Exercise: # return recorded TGI for entry "COc1ccc(Nc2cnc3cc(N)ccc3n2)cc1OC"
Key: 62.1

Exercise: # return recorded TGI for entry NC(CSC(c1ccccc1)(c1ccccc1)c1ccc(Br)cc1)C(=O)O (stereo not given)
Key: 75.3

Exercise: # return recorded TGI for entry "COc1cc(-c2nc3cc(Cl)c(Cl)cc3[nH]2)ccc1OCC(=O)N=Nc1c(O)[nH]c2ccccc12"
Key: 2.22

Exercise: # return recorded TGI for entry "C[C@@H](Br)[C@@H]1CC[C@H]2c3[nH]c4ccccc4c3CCN2C1"
Key: 39.5

Exercise: # return recorded TGI for entry "O=c1cc(/C=C/c2ccccc2)c2ccc(O/C(=C\c3ccccc3)c3nc4ccccc4c(=O)o3)cc2o1"
Key: 45.5

Exercise: # return recorded TGI for entry "Cc1cnc2n(c1=O)Cc1ccccc1CO2"
Key: 35.1

---

# Test system: 786-0 renal
# method: NCI tumour cell line growth inhibition, 48 h
experimentalEndpoint: TGI

Exercise: # return recorded TGI for entry "CCOc1ccc(-n2cc(-c3ccc(N(C)C)cc3)[n+]3c2CCCCC3)cc1"
Key: > 100 µM

Exercise: # return recorded TGI for entry "CN1CCN(C(=S)N(C(=O)c2ccc(Cl)cc2)C2CCCCC2)CC1"
Key: > 100 µM

Exercise: # return recorded TGI for entry "Clc1ccc2c(NCCCNCc3ccc4c(c3)OCO4)ccnc2c1"
Key: 12 µM

Exercise: # return recorded TGI for entry CC(=O)NC1C(OCc2ccccc2)OC(COC(=O)CCCCCCCCCCNC(=O)CCNc2ccc([N+](=O)[O-])c3[nH]c4ccc(O)cc4c(=O)c23)C(O)C1OC(C)C(=O)N[C@H](C(=O)N[C@H](CCC(=O)O)C(N)=O)C(C)C (stereo partly specified)
Key: > 100 µM

Exercise: # return recorded TGI for entry "Cn1c(=O)c2nc3sc4ccccc4c(=N)n3c2n(C)c1=O"
Key: > 100 µM

Exercise: # return recorded TGI for entry "COC(=O)/C=C/c1cc(OC)c2c(c1)[C@@H](C(=O)OC)[C@H](c1ccc(OC)c(OC)c1)O2"
Key: > 100 µM

Exercise: # return recorded TGI for entry CC(C)[Si](CC1=CCCCC12C(=O)N(COCC[Si](C)(C)C)c1ccccc12)(C(C)C)C(C)C (stereo unspecified)
Key: > 100 µM

Exercise: # return recorded TGI for entry CCOC(=O)C1=CN(Cc2ccccc2)C2ON=C(c3ccc(Cl)cc3)C2C1 (stereo unspecified)
Key: > 69.5 µM

Exercise: # return recorded TGI for entry "COC(=O)c1cccc(COc2ccc([N+](=O)[O-])cc2Cl)c1"
Key: > 100 µM

Exercise: # return recorded TGI for entry NC(CSC(c1ccccc1)(c1ccccc1)c1ccc(Br)cc1)C(=O)O (stereo unspecified)
Key: 1.58 µM

Exercise: # return recorded TGI for entry "O=C(NCCOCCO)c1ccc(O)cc1"
Key: > 100 µM

Exercise: # return recorded TGI for entry CC1(C)C(=O)C2(N)CCC1C2 (stereo unspecified)
Key: > 100 µM

Exercise: # return recorded TGI for entry O=C1CSC2(CC(/C=C/c3ccccc3[N+](=O)[O-])=NN2c2cccc(S(=O)(=O)O)c2)N1c1nc2ccccc2s1 (stereo unspecified)
Key: 22.5 µM

Exercise: # return recorded TGI for entry "Cc1nc(N(C)C)nc(-c2cccc(-c3ccn(CCN(C)C)n3)c2)c1C"
Key: > 20 µM

Exercise: # return recorded TGI for entry "CCOC(=O)/C(C#N)=C/c1[nH]c(C)c(C)c1C"
Key: > 100 µM

Exercise: # return recorded TGI for entry "Oc1ccccc1/C=N/N1C(=S)N(c2ccccc2)C(=Nc2ccccc2)C1=Nc1ccccc1"
Key: 14.1 µM

Exercise: # return recorded TGI for entry "O=C(CN1CCOCC1)c1ccc2c(c1)oc(=O)n2CCN1CCCCC1"
Key: > 100 µM

Exercise: # return recorded TGI for entry O=[N+]([O-])c1cc(C2ON=C(c3ccccc3)N2C23CC4CC(CC(C4)C2)C3)ccc1Cl (stereo unspecified)
Key: > 100 µM

Exercise: # return recorded TGI for entry "CC1(C)CC(=O)C(/C=N/c2nc(-c3cccc([N+](=O)[O-])c3)cs2)=C(O)C1"
Key: 29.9 µM

Exercise: # return recorded TGI for entry "O=c1c(Br)ccc(Br)cc1Br"
Key: 3.7 µM

Exercise: # return recorded TGI for entry O=P1(NCCCl)OCCC(OO)N1CCCl (stereo unspecified)
Key: 99.7 µM

Exercise: # return recorded TGI for entry "Cc1cnc2n(c1=O)Cc1ccccc1CO2"
Key: 39.4 µM

Exercise: # return recorded TGI for entry "O=C(O)c1cccc(F)c1C(=O)c1ccc2ccccc2c1"
Key: > 100 µM

Exercise: # return recorded TGI for entry "O=C(O)Cc1ccc(-n2nnc3c(=O)[nH][nH]c(=O)c32)cc1"
Key: > 100 µM

Exercise: # return recorded TGI for entry "Nc1nc(-c2ccccc2Cl)cc(-c2ccc(Cl)cc2Cl)n1"
Key: > 100 µM

Exercise: # return recorded TGI for entry CCN(CC)[C@@H]1c2cc3c(cc2C(c2cc(OC)c(O)c(OC)c2)C2C(=O)CO[C@@H]21)OCO3 (stereo partly specified)
Key: > 100 µM

Exercise: # return recorded TGI for entry "CCOC(=O)CCNC(=O)c1cc(C)cc2c1Oc1c(cc(C)cc1C(=O)NCCC(=O)OCC)S2"
Key: > 100 µM

Exercise: # return recorded TGI for entry COc1ccc2nc3c(cc2c1)C(=O)CC(C(F)(F)F)C3 (stereo unspecified)
Key: > 100 µM

Exercise: # return recorded TGI for entry "Cc1cc2c(C=O)[nH]nc2c(C#N)c1C"
Key: > 100 µM

Exercise: # return recorded TGI for entry "c1ccc(Oc2cnc3ccccc3n2)cc1"
Key: > 100 µM

Exercise: # return recorded TGI for entry COC(=O)/C=C/[C@H]1[C@H](C)N1S(=O)(=O)c1ccc(C)cc1 (stereo partly specified)
Key: > 100 µM

Exercise: # return recorded TGI for entry Cc1cccc(C)c1NC(=O)/C(CC(=O)CC(c1ccccc1)c1c(O)c2ccccc2oc1=O)=N/O (stereo unspecified)
Key: > 100 µM

Exercise: # return recorded TGI for entry "CSc1c(C#N)c(=O)n(N)c2n[nH]c(C)c12"
Key: > 100 µM

Exercise: # return recorded TGI for entry CC(=O)SC(C[N+](=O)[O-])c1ccccc1 (stereo unspecified)
Key: 23.7 µM

Exercise: # return recorded TGI for entry "O=CN/C=C\c1cc(O)ccc1O"
Key: 31.1 µM

Exercise: # return recorded TGI for entry COc1ccc(C(CC(=O)c2ccc(O)cc2)C(C(=O)c2ccc(O)cc2)C(c2ccc(OC)cc2)C2C(=O)NC(=S)NC2=O)cc1 (stereo unspecified)
Key: 44.2 µM

Exercise: # return recorded TGI for entry "C[C@H](OC(=O)/C=C/c1ccc(O)c(O)c1)[C@H](C)OC(=O)/C=C/c1ccc(O)c(O)c1"
Key: 20 µM

Exercise: # return recorded TGI for entry "O=C1CCC(=O)C12CCc1ccccc12"
Key: > 100 µM

Exercise: # return recorded TGI for entry "O=c1ccc2c(Cl)sc(Cl)c2[nH]1"
Key: > 100 µM

Exercise: # return recorded TGI for entry CCOC(=O)C(C(=O)OCC)C(=S)NC1OC(COC(C)=O)C(OC(C)=O)C(OC(C)=O)C1OC(C)=O (stereo unspecified)
Key: > 100 µM

Exercise: # return recorded TGI for entry "CN(CC(=O)O)Cc1c[nH]c2ccccc12"
Key: > 100 µM
